From: the supplement of paper PMC6757056

B1: library; a variant is named by its letters at N, in order (parent)
chain: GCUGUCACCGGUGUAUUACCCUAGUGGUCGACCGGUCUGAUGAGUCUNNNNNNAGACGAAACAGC

Variants of: B1
test.summary: FACS-Seq fitted mean relative fluorescence mCherry/BFP with ligand (log10 relative fluorescence); ligand: hypoxanthine (xanthine aptamer); ligand concentration (+) FACS-Seq: 5 mM; higher = higher reporter protein expression
test.context: HEK293T, ligand present: yes
Decision: FACS-Seq fitted mean (log10) >= 0.5 yields Met, all other cases yield Not met.

mutant_designation=GUCUCU class_label="Not met"
mutant_designation=AUAGCG class_label="Not met"
mutant_designation=CGAAAU class_label="Not met"
mutant_designation=GAACCA class_label="Not met"
mutant_designation=UUGAUA class_label="Not met"
mutant_designation=AAAUUU class_label=Met
mutant_designation=GUAUUG class_label="Not met"
mutant_designation=CAUUUA class_label=Met
mutant_designation=AAUAUA class_label=Met
mutant_designation=GCCAAG class_label=Met
mutant_designation=GGUAAG class_label=Met
mutant_designation=UUCCAC class_label=Met
mutant_designation=GAACGG class_label="Not met"
mutant_designation=AUUGAU class_label=Met
mutant_designation=GAAACU class_label="Not met"
mutant_designation=GUGGGA class_label="Not met"
mutant_designation=GAGUGC class_label="Not met"
mutant_designation=UAUCCG class_label="Not met"
mutant_designation=AAUGAC class_label=Met
mutant_designation=ACGGAA class_label="Not met"
mutant_designation=UACGCA class_label="Not met"
mutant_designation=GAUCCG class_label="Not met"
mutant_designation=GAGAUA class_label="Not met"
mutant_designation=GUAAGA class_label="Not met"
mutant_designation=GAAUCG class_label="Not met"
mutant_designation=AGACUU class_label=Met
mutant_designation=GCGUAC class_label="Not met"
mutant_designation=ACUGCA class_label="Not met"
mutant_designation=GCGAAC class_label=Met
mutant_designation=AGAGAA class_label="Not met"
mutant_designation=AUUAAG class_label=Met
mutant_designation=GUGGUG class_label=Met
mutant_designation=CUAAGU class_label="Not met"
mutant_designation=UUGAGG class_label=Met
mutant_designation=AGACGA class_label=Met
mutant_designation=AGUAAU class_label=Met
mutant_designation=AGACGU class_label=Met
mutant_designation=AAGUCU class_label="Not met"
mutant_designation=AGCAGG class_label=Met
mutant_designation=AACUUA class_label=Met
mutant_designation=UACAGG class_label=Met
mutant_designation=GCGACA class_label="Not met"
mutant_designation=GAGACU class_label="Not met"
mutant_designation=CUUAAC class_label=Met
mutant_designation=ACCAAC class_label="Not met"
mutant_designation=GUCAAG class_label=Met
mutant_designation=CAUGCU class_label=Met
mutant_designation=UAUUCA class_label="Not met"
mutant_designation=GAGGAG class_label=Met
mutant_designation=AGGAUG class_label=Met
mutant_designation=AGGACU class_label=Met
mutant_designation=ACGCGG class_label="Not met"
mutant_designation=CCCGGG class_label=Met
mutant_designation=CAUGAA class_label="Not met"
mutant_designation=ACGAGG class_label=Met
mutant_designation=AUCCUG class_label="Not met"
mutant_designation=AACUAA class_label=Met
mutant_designation=UGGUCA class_label=Met
mutant_designation=GCACAA class_label=Met
mutant_designation=ACAAAG class_label=Met
mutant_designation=CCAAAU class_label="Not met"
mutant_designation=AAAUUG class_label="Not met"
mutant_designation=AUAAGA class_label=Met
mutant_designation=AGAGGU class_label=Met
mutant_designation=UAGGCC class_label=Met
mutant_designation=CUCGAU class_label=Met
mutant_designation=ACAAGC class_label=Met
mutant_designation=GUAUGA class_label="Not met"
mutant_designation=ACUCGA class_label=Met
mutant_designation=UUAGGC class_label="Not met"
mutant_designation=AGGCCG class_label="Not met"
mutant_designation=AAUAGC class_label=Met
mutant_designation=UAUAUA class_label=Met
mutant_designation=CAUUUC class_label=Met
mutant_designation=UAAGAA class_label="Not met"
mutant_designation=AAGGGU class_label="Not met"
mutant_designation=CUAAUC class_label="Not met"
mutant_designation=UAGGAU class_label=Met
mutant_designation=GGUGAU class_label=Met
mutant_designation=UAUAGU class_label="Not met"
mutant_designation=UCCCGU class_label=Met
mutant_designation=UUUAUU class_label=Met
mutant_designation=UCAGGG class_label=Met
mutant_designation=UUCUGG class_label=Met
mutant_designation=AAACCA class_label="Not met"
mutant_designation=ACUCUA class_label=Met
mutant_designation=GUAUAG class_label="Not met"
mutant_designation=UAUGAC class_label="Not met"
